- System: Mus musculus
- assay-remarks: Toxicity assessed as tail bleeding in Kunming mouse at 200 mg/kg, po after 60 mins
- Assay type: organism-based
- Set-up: dose 200 mg/kg, route oral
- measurement-conditions: in vivo, 1 h
parameter: Time (min)
Report only the number, with the unit min understood.

Exam item: Which measured Time belongs to NCC(=O)N[C@H]1CCO[C@H](c2cccc([N+](=O)[O-])c2)OC1 , tested on Mus musculus?
Marked response: 2.02

Exam item: Give Time (Mus musculus) of the following molecule: NCC(=O)N[C@H]1CO[C@@H](c2cccc([N+](=O)[O-])c2)OC1
Marked response: 2.02

Exam item: Look up Time with Mus musculus for this molecule: NCC(=O)N[C@H]1CO[C@@H](c2ccccc2)OC1
Marked response: 2.01

Exam item: # value lookup — system Mus musculus, readout Time, item NCC(=O)N[C@H]1CCO[C@@H](c2cccc([N+](=O)[O-])c2)OC1
Marked response: 1.99

Exam item: Given the entry NCC(=O)N[C@H]1CCO[C@@H](c2ccc([N+](=O)[O-])cc2)OC1 , what Time was observed with Mus musculus?
Marked response: 1.99

Exam item: Query for Mus musculus: what Time does the record show for C[C@H]1O[C@@H](c2ccccc2)OC[C@H]1NC(=O)CN ?
Marked response: 2.03

Exam item: What reported Time corresponds to NCC(=O)N[C@H]1CCO[C@H](c2ccc(Cl)cc2)OC1 on Mus musculus?
Marked response: 1.99

Exam item: Give Time (Mus musculus) of the following molecule: C[C@H]1O[C@@H](c2ccc(Cl)cc2)OC[C@H]1NC(=O)CN
Marked response: 2.01

Exam item: Requested read-out Time, target or system Mus musculus, entry NCC(=O)N[C@H]1CCO[C@@H](c2ccc(Cl)cc2)OC1
Marked response: 2

Exam item: Lookup: Time / Mus musculus / C[C@H]1O[C@@H](c2cccc([N+](=O)[O-])c2)OC[C@H]1NC(=O)CN
Marked response: 2

Exam item: Request - read-out Time | tested on Mus musculus | molecule Cc1ccc([C@H]2OC[C@@H](NC(=O)CN)CO2)cc1
Marked response: 2

Exam item: Quick check: Time on Mus musculus, item NCC(=O)N[C@H]1CCO[C@H](c2ccc([N+](=O)[O-])cc2)OC1 ?
Marked response: 1.99

Exam item: Find Time (Mus musculus) for the entry NCC(=O)N[C@H]1CO[C@@H](c2ccc(Cl)cc2)OC1
Marked response: 2

Exam item: Lab note: need Time for Cc1ccc([C@H]2OC[C@@H](NC(=O)CN)[C@@H](C)O2)cc1 on Mus musculus, anyone have it?
Marked response: 2

Exam item: Please provide the recorded Time for NCC(=O)N[C@H]1CO[C@@H](c2ccc([N+](=O)[O-])cc2)OC1 , tested on Mus musculus.
Marked response: 2.02

Exam item: Form: Entry = C[C@H]1O[C@@H](c2ccc([N+](=O)[O-])cc2)OC[C@H]1NC(=O)CN | System = Mus musculus | Time = ____
Marked response: 2.01

* * *

- Test system: Mus musculus
- assay-remarks: Toxicity assessed as tail bleeding in Kunming mouse at 200 mg/kg, po after 30 mins
- Type: organism-based
- Design: dose 200 mg/kg, route oral
- measurement-conditions: in vivo, 0.5 h
parameter: Time (min)
Write down the numeric answer in min and omit the unit.

Exam item: Recorded Time for C[C@H]1O[C@@H](c2ccc([N+](=O)[O-])cc2)OC[C@H]1NC(=O)CN , please?
Marked response: 1.98

Exam item: Need Time, item NCC(=O)N[C@H]1CCO[C@@H](c2cccc([N+](=O)[O-])c2)OC1
Marked response: 2.05

Exam item: What value of measured Time is listed for Cc1ccc([C@H]2OC[C@@H](NC(=O)CN)[C@@H](C)O2)cc1 ?
Marked response: 2.02

Exam item: So what's the measured Time for this one? NCC(=O)N[C@H]1CCO[C@H](c2ccc(Cl)cc2)OC1
Marked response: 2

Exam item: Quick check: Time of C[C@H]1O[C@@H](c2cccc([N+](=O)[O-])c2)OC[C@H]1NC(=O)CN ?
Marked response: 1.98

Exam item: // query Time value for entry NCC(=O)N[C@H]1CCO[C@H](c2cccc([N+](=O)[O-])c2)OC1
Marked response: 2

Exam item: Reported Time, compound NCC(=O)N[C@H]1CO[C@@H](c2ccccc2)OC1 : ____
Marked response: 2.02

Exam item: GET /values?readout=Time&item= NCC(=O)N[C@H]1CO[C@@H](c2ccc([N+](=O)[O-])cc2)OC1
Marked response: 2.04

Exam item: Tell me the measured Time of C[C@H]1O[C@@H](c2ccc(Cl)cc2)OC[C@H]1NC(=O)CN , please.
Marked response: 2

Exam item: Time for Cc1ccc([C@H]2OC[C@@H](NC(=O)CN)CO2)cc1 ?
Marked response: 1.99

Exam item: Consider the compound NCC(=O)N[C@H]1CCO[C@@H](c2ccc(Cl)cc2)OC1 and give its measured Time.
Marked response: 2.01

Exam item: Time for NCC(=O)N[C@H]1CO[C@@H](c2ccc(Cl)cc2)OC1 ?
Marked response: 2

Exam item: Which Time value is on record for NCC(=O)N[C@H]1CCO[C@@H](c2ccc([N+](=O)[O-])cc2)OC1 ?
Marked response: 2

Exam item: Entry C[C@H]1O[C@@H](c2ccccc2)OC[C@H]1NC(=O)CN : reported Time = ?
Marked response: 2.01

Exam item: Can you look up the measured Time of NCC(=O)N[C@H]1CO[C@@H](c2cccc([N+](=O)[O-])c2)OC1 for me?
Marked response: 2.04

Exam item: Could you tell me which Time is on file for NCC(=O)N[C@H]1CCO[C@H](c2ccc([N+](=O)[O-])cc2)OC1 ?
Marked response: 2

* * *

- System: Mus musculus
- assay-remarks: Toxicity assessed as tail bleeding in Kunming mouse at 200 mg/kg, po after 5 mins
- Assay type: organism-based
- Set-up: dose 200 mg/kg, route oral
- measurement-conditions: in vivo
Can you tell me Time for the items I'm about to list?
Just the number in min, nothing appended.

Exam item: So what Time did Cc1ccc([C@H]2OC[C@@H](NC(=O)CN)[C@@H](C)O2)cc1 get with Mus musculus?
Marked response: 2

Exam item: I'm curious: which Time was measured for NCC(=O)N[C@H]1CCO[C@H](c2ccc(Cl)cc2)OC1 tested on Mus musculus?
Marked response: 2.02

Exam item: Enter reported Time observed with Mus musculus for C[C@H]1O[C@@H](c2ccc([N+](=O)[O-])cc2)OC[C@H]1NC(=O)CN
Marked response: 2

Exam item: Field: Time (Mus musculus). Entry: C[C@H]1O[C@@H](c2ccc(Cl)cc2)OC[C@H]1NC(=O)CN
Marked response: 2.04

Exam item: Param readout = Time; param system = Mus musculus; param query = NCC(=O)N[C@H]1CCO[C@H](c2ccc([N+](=O)[O-])cc2)OC1 ; response: value
Marked response: 2.01

Exam item: Kindly state the measured Time obtained for NCC(=O)N[C@H]1CCO[C@@H](c2ccc(Cl)cc2)OC1 with Mus musculus.
Marked response: 1.99

Exam item: Provide the documented Time with Mus musculus as the system for NCC(=O)N[C@H]1CO[C@@H](c2ccc([N+](=O)[O-])cc2)OC1
Marked response: 2.02

Exam item: What value of Time on Mus musculus does NCC(=O)N[C@H]1CCO[C@H](c2cccc([N+](=O)[O-])c2)OC1 have?
Marked response: 2.02

Exam item: Test system Mus musculus; read-out Time; what value for NCC(=O)N[C@H]1CO[C@@H](c2ccccc2)OC1 ?
Marked response: 2

Exam item: Field: Time (Mus musculus). Entry: NCC(=O)N[C@H]1CCO[C@@H](c2ccc([N+](=O)[O-])cc2)OC1
Marked response: 2

Exam item: Fill in the recorded Time for this compound, with Mus musculus as test system: Cc1ccc([C@H]2OC[C@@H](NC(=O)CN)CO2)cc1
Marked response: 2

Exam item: Give Time (Mus musculus) of the following compound: NCC(=O)N[C@H]1CCO[C@@H](c2cccc([N+](=O)[O-])c2)OC1
Marked response: 1.99

Exam item: Provide the documented Time with Mus musculus as the system for C[C@H]1O[C@@H](c2ccccc2)OC[C@H]1NC(=O)CN
Marked response: 2.02

These measurements were taken from ChEMBL document CHEMBL1143996.
